Settings: in n-propanol, 303.15 K
measured_quantity: solubility (mole fraction)
Simply state the number, no unit and no words.

Provide solubility (mole fraction) value for the following compound: `Cc1ccc2cc(Br)ccc2n1` 0.00513

* * *

Settings: in ethyl acetate, 303.15 K
measured_quantity: solubility (mole fraction)
Simply state the number, no unit and no words.

Provide solubility (mole fraction) value for the following molecule: `Cc1ccc2cc(Br)ccc2n1` 0.0159

* * *

Conditions: in ethyl acetate, 308.15 K
measured_quantity: solubility (mole fraction)
Simply state the number, no unit and no words.

Provide solubility (mole fraction) value for the following molecule: `Cc1ccc2cc(Br)ccc2n1` 0.0187

* * *

Settings: in acetone, 288.15 K
measured_quantity: solubility (mole fraction)
Simply state the number, no unit and no words.

Provide solubility (mole fraction) value for the following molecule: `Cc1ccc2cc(Br)ccc2n1` 0.00926

* * *

Conditions: in DMF, 303.15 K
measured_quantity: solubility (mole fraction)
Simply state the number, no unit and no words.

Provide solubility (mole fraction) value for the following compound: `Cc1ccc2cc(Br)ccc2n1` 0.0116

* * *

Conditions: in toluene, 283.15 K
measured_quantity: solubility (mole fraction)
Simply state the number, no unit and no words.

Provide solubility (mole fraction) value for the following molecule: `Cc1ccc2cc(Br)ccc2n1` 0.00953

* * *

Settings: in methanol, 303.15 K
measured_quantity: solubility (mole fraction)

Provide solubility (mole fraction) value for the following compound: `Cc1ccc2cc(Br)ccc2n1` 0.000525

* * *

Details: in DMF, 318.15 K
measured_quantity: solubility (mole fraction)
Simply state the number, no unit and no words.

Provide solubility (mole fraction) value for the following compound: `Cc1ccc2cc(Br)ccc2n1` 0.0188

* * *

Conditions: in ethanol, 323.15 K
measured_quantity: solubility (mole fraction)
Simply state the number, no unit and no words.

Provide solubility (mole fraction) value for the following compound: `Cc1ccc2cc(Br)ccc2n1` 0.0039

* * *

Settings: in acetone, 298.15 K
measured_quantity: solubility (mole fraction)
Simply state the number, no unit and no words.

Provide solubility (mole fraction) value for the following compound: `Cc1ccc2cc(Br)ccc2n1` 0.0126

* * *

Settings: in ethyl acetate, 323.15 K
measured_quantity: solubility (mole fraction)
Simply state the number, no unit and no words.

Provide solubility (mole fraction) value for the following compound: `Cc1ccc2cc(Br)ccc2n1` 0.0299

* * *

Details: in DMF, 298.15 K
measured_quantity: solubility (mole fraction)
Simply state the number, no unit and no words.

Provide solubility (mole fraction) value for the following compound: `Cc1ccc2cc(Br)ccc2n1` 0.00994

* * *

Settings: in isopropanol, 288.15 K
measured_quantity: solubility (mole fraction)
Simply state the number, no unit and no words.

Provide solubility (mole fraction) value for the following compound: `Cc1ccc2cc(Br)ccc2n1` 0.00274

* * *

Conditions: in acetone, 283.15 K
measured_quantity: solubility (mole fraction)
Simply state the number, no unit and no words.

Provide solubility (mole fraction) value for the following compound: `Cc1ccc2cc(Br)ccc2n1` 0.00793

* * *

Settings: in ethanol, 308.15 K
measured_quantity: solubility (mole fraction)
Simply state the number, no unit and no words.

Provide solubility (mole fraction) value for the following compound: `Cc1ccc2cc(Br)ccc2n1` 0.00249

* * *

Settings: in isopropanol, 323.15 K
measured_quantity: solubility (mole fraction)
Simply state the number, no unit and no words.

Provide solubility (mole fraction) value for the following compound: `Cc1ccc2cc(Br)ccc2n1` 0.00812
